# pKd listing for each entry below
# target of assay: T1, cyIL-1RAP(1-367)_F-chLys_Avi (cynomolgus, biotinylated (Avi tag) in SPR; unlabeled in SET)
# T1 construct: cynomolgus IL-1RAcP (21-367) is UniProt A0A2K5X5J5; also called cynomolgus IL-1RAcP (AG-12211)
# experimental protocol: solution equilibrium titration (SET), ECL read-out, IgG
Recall that pKd is obtained by taking minus log10 of the concentration measured in molar.

Worked examples follow.
{"binder": "Y024084_h_IgG1f_AEASS (antibody, V domains shown, also called Morphosys 24084; Mor Y024084) VH: QVQLVQSGAEVKKPGASVKVSCKASGYTFTSYYMHWVRQAPGQGLEWMGIINPSGGSTSYAQKFQGRVTMTRDTSTSTVYMELSSLRSEDTAVYYCARGFVTSGIDYWGQGTLVTVSS VL: QSVLTQPPSVSAAPGQKVTISCSGSSSNIGNNYVSWYQQLPGTAPKLLIYDNNKRPSGIPDRFSGSKSGTSATLGITGLQTEDEADYYCQTWTYTGRLWIVFGGGTKLTVLG", "pKd": 11.40}
{"binder": "R001031 (CAN04) (antibody, human IgG1, kappa, V domains shown, Variable domains of prior art CAN04 on human IgG1 kappa constant regions with AEASS) VH: QVQLVQSGAEVKKPGSSVKVSCKASGYAFSSSWMNWVRQAPGQGLEWMGRIYPGDGNTHYAQKFQGRVTLTADKSTSTAYMELSSLRSEDTAVYYCGEGYLDPMDYWGQGTLVTVSS VL: DIQMTQSPSSLSASVGDRVTITCSASQGINNYLNWYQQKPGKAPKLLIHYTSGLHAGVPSRFSGSGSGTDYTLTISSLQPEDVATYYCQQYSILPWTFGGGTKVEIKR", "pKd": 10.80}

h11C5 YKD (antibody, human IgG1, kappa, V domains shown, Variable domains of h11C5 YKD on the same modified IgG1 kappa constant regions (AEASS); Printed as 'h1105' in much of the text; also called h1105) VH: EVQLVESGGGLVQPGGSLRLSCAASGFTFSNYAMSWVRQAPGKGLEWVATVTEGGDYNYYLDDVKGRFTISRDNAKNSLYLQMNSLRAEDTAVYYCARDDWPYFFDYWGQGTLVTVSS VL: DIQMTQSPSSLSASVGDRVTITCRASENIYSNLAWYQQKPGKSPKLLVYGYKNLADVPSRFSGSGSGTDYTLTISSLQPEDFATYYCQHFKTTPRTFGGGTKVEIKR yielded pKd of 11.52
